# measurement protocol: M. tuberculosis growth inhibition, HTS (AID 1259417);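 note: bacteria grown with compound for 5 days at 37 °C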
# condition summary: M. tuberculosis growth inhibition; stronger effect = higher value; concentration not given here
The whole screen tested about 1,100 compounds, of which about 760 (69%) were called active. So high a share suggests a set chosen from earlier hits. Some of the results follow.
measure name: inhibition
The reply should consist of the numeric value with the unit placed after it.

Use these answered entries as a reference point.
> print(dat)
                                   molecule  assay.result
1  COc1ccc(NC(=O)c2c(NC(=O)c3ccc([N+](=O)[O-])o3)sc3c2CCC3)cc1         96.2%
2  CCc1cccc2sc(N(CCCn3ccnc3)C(=O)C=Cc3cccs3)nc12         99.1%
3   O=C(CC12CC3CC(CC(C3)C1)C2)Nc1ccc(Br)cc1         17.6%
4  CCc1cccc2sc(N(CCCn3ccnc3)C(=O)c3cccs3)nc12         97.7%
5       Fc1cccc2sc(Nc3nc(-c4ccccn4)cs3)nc12          101%

Requested read-out: inhibition. Entry: Cc1ccc2sc(N(CCCn3ccnc3)C(=O)c3cccs3)nc2c1C
99.1%

Quick one: c1ccc2cc3nc4c(ccc5ccccc54)nc3cc2c1
99%

Quick one: O=C(CC12CC3CC(CC(C3)C1)C2)Nc1ccc(F)c(Cl)c1
95.1%

Quick one: Cc1cccc(Nc2nc(-c3ccccn3)cs2)n1
97.6%

Quick one: COC(=O)C(CC(=O)c1ccc(Br)cc1)n1ccnc1 (centres undefined)
100%

Quick one: Clc1ccc(Nc2nc(-c3ccccn3)cs2)nc1
101%

Quick one: COC(=O)c1c(NC(=O)c2cccc(OC)c2)sc2c1C(C(=O)OC)CC2 (centres undefined)
-13.4%

Quick one: Cc1ccc(Sc2ccc(C=O)o2)cc1
24.1%

Quick one: CCOC(=O)CSc1ccc(-c2nc3cc(C)c(C)cc3[nH]2)cn1
96%

Quick one: O=C(Nc1nnc(-c2ccc(F)cc2)o1)c1ccco1
16.6%

Quick one: Cc1cccc(-n2nc([N+](=O)[O-])c(=NCCC3=CCCCC3)n2O)c1
54.8%

Quick one: CCOC(=O)Cc1c(C)nc2c(-c3cccc(Br)c3)c[nH]n2c1=O
97.9%

Quick one: FC(F)(F)c1ccccc1Nc1nc(-c2ccccn2)cs1
86.1%

Quick one: COc1ccccc1-c1coc2cc(OCC(=O)OC3CCCCC3)ccc2c1=O
66.9%

Quick one: CCCOc1ccc(C2Oc3ccc(Br)cc3C=C2[N+](=O)[O-])cc1OC (centres undefined)
37.5%

* * *

# measurement protocol: M. tuberculosis growth inhibition, HTS (AID 1259417);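 note: bacteria grown with compound for 5 days at 37 °C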
# condition summary: M. tuberculosis DsRed fluorescence growth inhibition; concentration not given here
Hit rate of the full screen: of about 1,100 compounds, about 760 (69%) were called active. No rule for the calls is given here. The set was probably picked from earlier hits. This is one part of the list.
Would you mind answering with one of these outcomes? 1.0 for active, 0.0 for inactive

The examples below pair each entry with its known result.
> print(dat)
                                   compound  answer.label
1  CC(C)(C)c1ccc(C(=O)Nc2sc3c(c2C(=O)NCC2CCCO2)CCCC3)cc1 (stereo unspecified)           0.0
2  COc1cc(C(=O)Nc2sc3c(c2C(=O)NCC2CCCO2)CCC3)cc(OC)c1OC (stereo unspecified)           0.0
3  Cc1cccc(-c2nsc(SCC(=O)NCC3CCCO3)n2)c1 (stereo unspecified)           1.0

Look up the recorded call for Cc1cccc(-n2nc([N+](=O)[O-])c(=NCCC3=CCCCC3)n2O)c1 in this test.
1.0

Quick one: O=C(Nc1nnc(-c2ccc(Br)cc2)o1)c1ccccc1F
1.0

Quick one: COc1ccc(-c2nsc(SCC(=O)NCC3CCCO3)n2)cc1 (stereo unspecified)
1.0
